Target: JAK2 (Homo sapiens (Human), UniProt O60674)
Sequence (O60674 whole entry, species assumed): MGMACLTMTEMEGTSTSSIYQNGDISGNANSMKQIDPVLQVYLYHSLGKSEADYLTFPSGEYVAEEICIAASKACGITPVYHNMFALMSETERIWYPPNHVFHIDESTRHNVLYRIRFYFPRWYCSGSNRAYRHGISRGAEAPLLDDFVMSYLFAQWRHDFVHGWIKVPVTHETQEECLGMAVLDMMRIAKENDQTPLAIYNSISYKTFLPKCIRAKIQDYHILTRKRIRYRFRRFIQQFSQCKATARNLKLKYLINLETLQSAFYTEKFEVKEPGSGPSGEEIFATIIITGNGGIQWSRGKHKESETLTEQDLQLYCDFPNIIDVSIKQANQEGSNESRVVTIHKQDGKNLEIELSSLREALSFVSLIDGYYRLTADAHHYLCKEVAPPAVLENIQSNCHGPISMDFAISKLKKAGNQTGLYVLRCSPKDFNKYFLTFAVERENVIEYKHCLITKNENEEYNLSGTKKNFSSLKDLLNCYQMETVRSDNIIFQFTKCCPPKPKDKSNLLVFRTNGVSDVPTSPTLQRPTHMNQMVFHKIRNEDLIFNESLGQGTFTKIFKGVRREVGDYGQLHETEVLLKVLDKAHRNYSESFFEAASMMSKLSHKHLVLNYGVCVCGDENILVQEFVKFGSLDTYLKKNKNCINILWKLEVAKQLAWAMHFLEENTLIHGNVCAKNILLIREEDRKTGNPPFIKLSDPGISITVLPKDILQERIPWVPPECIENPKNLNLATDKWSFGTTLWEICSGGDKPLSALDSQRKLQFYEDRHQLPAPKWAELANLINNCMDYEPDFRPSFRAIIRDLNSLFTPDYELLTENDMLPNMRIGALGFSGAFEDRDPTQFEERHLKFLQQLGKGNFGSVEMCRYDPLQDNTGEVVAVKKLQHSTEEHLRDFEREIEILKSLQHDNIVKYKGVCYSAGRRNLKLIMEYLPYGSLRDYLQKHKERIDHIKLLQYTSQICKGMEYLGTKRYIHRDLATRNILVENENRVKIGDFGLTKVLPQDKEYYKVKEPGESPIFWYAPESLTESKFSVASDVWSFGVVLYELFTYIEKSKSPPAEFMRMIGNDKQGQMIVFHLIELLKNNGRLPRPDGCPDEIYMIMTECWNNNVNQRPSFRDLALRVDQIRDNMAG
Experiment: Biochemical kinase assay (33P-ATP filter-binding), JAK2
Settings: Table 3a; read-out: IC50 JAK2
Mark rule met only for IC50 values smaller than 50 nM; exact matches and larger values are rule not met.

| molecule | group |
| --- | --- |
| Cc1cnc(Nc2cc(C#N)c3c(c2)COB3O)nc1N[C@H]1CCCC[C@@H]1C#N (single isomer, unassigned) [Example 012a] | rule met |
| Cc1cnc(Nc2cc(F)c3c(c2)C=CB(O)O3)nc1N[C@@H]1COCC[C@H]1C#N (single isomer, unassigned) [Example 036b] | rule not met |
| Cc1cnc(Nc2cc(C#N)c3c(c2)COB3O)nc1N[C@@H]1CCC[C@H]1C#N (relative stereo) | rule met |
| N#C[C@@H]1CCCC[C@H]1Nc1nc(Nc2cc(F)c3c(c2)COB3O)ncc1Cl (relative stereo) | rule met |
| Cc1cnc(Nc2ccc3c(c2)C(C)OB3O)nc1NC1COCCC1C#N (stereo not shown) | rule met |
| Cc1cnc(Nc2cc3c4c(c2)OCCOB4OC3)nc1NC1CCCCC1C#N (stereo not shown) | rule not met |

From: patent US20240132525A1
